Test: Pharmacokinetics in plasma and lung ELF of P. aeruginosa-infected rats
Details: Sprague-Dawley, rat, in vivo, po, 75 mg/kg, 75 mg/kg PO, infected rats; read-out: lung ELF/plasma ratio of AUCinf

>  <smiles.text>
CC[C@H]1OC(=O)[C@H](C)[C@@H](O[C@H]2C[C@@](C)(OC)[C@@H](O)[C@H](C)O2)[C@H](C)[C@@H](O[C@@H]2O[C@H](C)C[C@H](N(C)C)[C@H]2O)[C@](C)(O)C[C@@H](C)CN(C)[C@H](C)[C@@H](O)[C@]1(C)O

>  <Kp>
86

$$$$

====

Test: Pharmacokinetics in plasma and lung ELF of P. aeruginosa-infected rats
Settings: rat, in vivo, po, 75 mg/kg

>  <smiles.text>
CC[C@H]1OC(=O)[C@H](C)[C@@H](O[C@H]2C[C@@](C)(OC)[C@@H](O)[C@H](C)O2)[C@H](C)[C@@H](O[C@@H]2O[C@H](C)C[C@H](N(C)C)[C@H]2O)[C@](C)(O)C[C@@H](C)CN(C)[C@H](C)[C@@H](O)[C@]1(C)O

>  <Tmax (h)>
2

$$$$
